# target_entity: T1, recombinant human DLL4 (C-terminally His-tagged extracellular domain, R&D Systems) (human, UniProt Q9NR61 25-522, biotinylated in the competition ELISA)
# T1 construct: also called rhDLL4; hDLL4
# protocol_summary: ProteOn off-rate screen, periplasmic extract, coated human DLL4
# Protocol: In a first cycle, amino acid substitutions are introduced randomly in both framework (FW) and complementary determining regions (CDR) using the error-prone PCR method. […] No selections on murine DLL4 are included as (conservation of) cross-reactivity is assessed at the screening level. […] An average off-rate is calculated of the wild type clones present in the plate and served as a reference to calculate off-rate improvements.
# label = criterion met if fold (off-rate vs DLLBII101G08) < 30 fold else criterion not met

Use these answered entries as a reference point.
# binder, category_label
records = [
    ("DLLBII129D01 (VHH) VHH: EVQLVESGGGLVQAGGSLRLSCAASGRTFSSYAMAWFRQAPGKEREYVAAIRWSGGTAYYADSVQSRFTITRDNAKNTVYLQMNSLKPEDTAVYYCANRAPDTRLEPYLYDHWGQGTQVTVSS", "criterion met"),
    ("DLLBII129E11 (VHH, not shown: small tags and cut ends) VHH: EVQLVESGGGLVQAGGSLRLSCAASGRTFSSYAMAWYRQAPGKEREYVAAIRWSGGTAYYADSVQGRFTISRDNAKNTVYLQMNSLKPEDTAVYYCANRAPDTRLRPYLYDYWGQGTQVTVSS", "criterion met"),
    ("DLLBII130A05 (VHH) VHH: EVQLVESGGGLVQAGGSLRLSCAASGRTFSSYAMAWYRQAPGKEREYVAAIRWSGGTAYYADSVQGRFTISRDNAKNTVYLQMNSLKPEDTAVYYCANRAPDTRLGPYLYDHWGQGTQVTVSS", "criterion met"),
    ("DLLBII129E03 (VHH) VHH: EVQLVESGGGLVQAGGSLRLSCAASGRTFSSYAMAWFRQAPGKDREYVAAIRWSGGTAYYADSVQGRFTISRDNAKNTVYLQMNSLKPEDTAVYYCANRAPDTRLAPYLYDYWGQGTQVTVSS", "criterion met"),
    ("DLLBII130F06 (VHH, not shown: small tags and cut ends) VHH: EVQLVESGGGLVQAGGSLRLSCAASGRTFSSYAMAWYRQAPGKEREYVAAIRWSGGTAYYADSVQGRFTISRDNAKNTVYLQMNSLKPEDTAVYYCANRAPDTRLAPYEYDYWGQGTQVTVSS", "criterion met"),
]

From here, focus on the item given below.
[ask] Hello, I'm reviewing records and need to know if fold (off-rate vs DLLBII101G08) of DLLBII129D08 (VHH, not shown: small tags and cut ends) VHH: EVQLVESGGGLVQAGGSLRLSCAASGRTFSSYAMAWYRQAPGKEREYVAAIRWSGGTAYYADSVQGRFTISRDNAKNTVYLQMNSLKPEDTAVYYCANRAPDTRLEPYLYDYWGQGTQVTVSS is below 30 fold. Could you check?
[reply] criterion not met
